# koff listing for each entry below
Biological target: T1, human GREM1 (hGREM1-His; SEQ ID NO: 595) (human, UniProt O60565 25-184)
T1 construct: also called biotin-hGREM1-His; recombinant human GREM1 protein
T1 sequence: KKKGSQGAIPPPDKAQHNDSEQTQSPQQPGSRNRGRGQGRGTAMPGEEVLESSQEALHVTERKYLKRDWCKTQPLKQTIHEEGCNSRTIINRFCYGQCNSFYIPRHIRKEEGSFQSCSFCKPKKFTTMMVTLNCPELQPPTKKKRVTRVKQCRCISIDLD
Assay: SPR, Biacore T200, 25 C, mAb captured, hGREM1-His injected;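 also: Heparin-supplemented HBS-EP+ used as running buffer, association and dissociation phases followed, Kd computed as koff divided by kon and half-life derived from koff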
Quantity kind: koff (s⁻¹)

INSERT INTO assay_data (binder, unit_string, measured_result) VALUES
  ('H4H6270P (antibody, human IgG4, V domains shown, H4H prefix = human IgG4 Fc) VH: QVQLVESGGDVVQPGRSLRLSCAASGFTFSSYGMHWVRQAPGKGLEWVAIIWNDGSNKYYTDSVKGRFTISRDNSKNTLYLQMNGLRAEDTAIYYCARDQDQFDYWGQGTLVTVSS VL: EIVMTQSPATLSVSPGERATLSCRASQSISTNLAWYRQKPGQAPRLLIYDASTRATGIPARFSGSGSGTDFTLTISSLQSEDFAVYYCQQYSNWPPYTFGQGTKLEIK', 's⁻¹', 0.000175),
  ('H2bM2783N (antibody, mouse IgG2, V domains shown, H2M prefix = mouse IgG2 Fc (here H2bM); also called H2M2783N) VH: EVQLLESGGGLVQPGGSLRLSCAASGFTFSSYVMNWVRQAPGKGLEWVSAISGSGGSTYYADSVKGRSTISRDNSKNTLYLQMNSLRAEDTAIYYCAKGDIAAIVFDAFDIWGQGTVVTVSS VL: DIQMTQSPSSLSASVGDRVTITCQASQDISSCLNWYQHKPGKAPKLLIYDASYLETGVPSRFSGSGSGTDFTFTISSLQPEDIATYYCQQYDNLPYTFGQGTKLEIK', 's⁻¹', 0.0015),
  ('H4H6260P (antibody, human IgG4, V domains shown, H4H prefix = human IgG4 Fc) VH: QVQLVESGGGVVQPGRSLRLSCAASGFTFSTYGMHWVRQAPGKGLEWVAIIWYDGSNYYYADSVKGRFTISRDNSKNTLYLQMNSLRAEDTAVYYCAREDRNDVFDIWGQGTMVTVSS VL: EIVLTQSPATLSLSPGERATLSCRASQSVSSFLAWYQQKPGQAPRLLIYDSSNRATGIPARFSGSGSGTDFTLTISSLEPEDFAVYYCQQLSNWPPITFGQGTRLEIK', 's⁻¹', '6.51e-05');
